Where do these numbers come from? They come from paper PMC9516332.

The entries below are paired with their reported inhibition at 1 µM.
Test system: panel of 255 wild-type kinases (Homo sapiens, UniProt Q13882)
Sequence (Q13882 whole entry): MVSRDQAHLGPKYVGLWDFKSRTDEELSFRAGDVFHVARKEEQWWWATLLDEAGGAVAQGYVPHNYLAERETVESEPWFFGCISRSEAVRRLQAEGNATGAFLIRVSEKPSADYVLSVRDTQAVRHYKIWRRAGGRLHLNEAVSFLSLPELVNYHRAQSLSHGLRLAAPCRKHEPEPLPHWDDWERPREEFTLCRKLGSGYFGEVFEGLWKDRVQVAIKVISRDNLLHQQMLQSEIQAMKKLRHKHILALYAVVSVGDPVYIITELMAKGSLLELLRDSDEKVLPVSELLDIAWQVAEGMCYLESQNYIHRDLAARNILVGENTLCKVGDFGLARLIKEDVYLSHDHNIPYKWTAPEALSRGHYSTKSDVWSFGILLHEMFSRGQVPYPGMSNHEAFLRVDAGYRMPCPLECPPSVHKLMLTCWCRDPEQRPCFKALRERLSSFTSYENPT
Assay remarks: Kinase panel profiling at 1 µmol/L (MSA or IMAP), percentage inhibition
Format: biochemical
Particulars: BRK kinase assay; 1 µmol/L single concentration; read-out: %-inhibition BRK
Answer in %, number only, no unit symbol.

Please review the entries below; each comes with its answer.
# Compound string, Display unit, Data value
records = [
    ("Cn1cc(-c2cc3c(N4CCN(c5ncc([C@@](C)(N)c6ccc(F)cc6)cn5)CC4)ncnn3c2)cn1", "%", 0.682),
    ("CCc1nc(C(N)=O)c(Nc2ccc(N3CCC(N4CCN(C)CC4)CC3)c(OC)c2)nc1NC1CCOCC1", "%", 98),
    ("C[C@H]1Oc2cc(cnc2N)-c2c(nn(C)c2C#N)CN(C)C(=O)c2ccc(F)cc21", "%", 63),
    ("Cc1nc(NC(=O)N2CCC[C@H]2C(N)=O)sc1-c1ccnc(C(C)(C)C(F)(F)F)c1", "%", 2.75),
    ("CO[C@]1(C(=O)N[C@@H](C)c2ccc(-n3cc(F)cn3)nc2)CC[C@H](c2nc(C)cc(Nc3cc(C)[nH]n3)n2)CC1", "%", 49),
    ("CCN1C(=O)N(c2c(F)c(OC)cc(OC)c2F)Cc2cnc3[nH]c(CN4CCOCC4)cc3c21", "%", 11),
]

# context switch: different molecule, same inhibition at 1 µM
What value of inhibition at 1 µM has been recorded for this entry: CN1CCN(c2ccc(C(=O)Nc3n[nH]c4ccc(Cc5cc(F)cc(F)c5)cc34)c(NC3CCOCC3)c2)CC1 88

---

Test system: panel of 255 wild-type kinases (Homo sapiens, UniProt O15111)
Sequence (O15111 1-745): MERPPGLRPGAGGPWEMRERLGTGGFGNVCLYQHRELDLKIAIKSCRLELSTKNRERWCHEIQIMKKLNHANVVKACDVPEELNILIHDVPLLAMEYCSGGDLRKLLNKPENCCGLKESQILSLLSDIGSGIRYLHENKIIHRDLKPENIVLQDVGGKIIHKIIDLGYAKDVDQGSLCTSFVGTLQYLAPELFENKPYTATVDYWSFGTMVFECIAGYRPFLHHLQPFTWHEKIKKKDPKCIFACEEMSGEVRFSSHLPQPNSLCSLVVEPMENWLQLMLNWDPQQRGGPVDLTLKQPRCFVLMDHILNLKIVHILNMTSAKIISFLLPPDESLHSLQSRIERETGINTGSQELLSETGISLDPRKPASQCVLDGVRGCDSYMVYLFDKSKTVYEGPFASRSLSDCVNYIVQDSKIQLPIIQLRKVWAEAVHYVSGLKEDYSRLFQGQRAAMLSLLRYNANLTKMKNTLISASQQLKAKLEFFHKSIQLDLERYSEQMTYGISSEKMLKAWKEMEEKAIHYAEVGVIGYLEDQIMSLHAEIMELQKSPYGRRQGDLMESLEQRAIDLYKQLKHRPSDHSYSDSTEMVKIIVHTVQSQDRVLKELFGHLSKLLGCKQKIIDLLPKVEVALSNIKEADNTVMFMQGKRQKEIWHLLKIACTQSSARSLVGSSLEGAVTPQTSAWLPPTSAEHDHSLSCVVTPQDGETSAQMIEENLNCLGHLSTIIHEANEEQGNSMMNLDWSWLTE
Assay remarks: Kinase panel profiling at 1 µmol/L (MSA or IMAP), percentage inhibition
Format: biochemical
Particulars: kinase IKKα; 1 µmol/L single concentration; read-out: %-inhibition at 1 µmol/L, IKKα
Readout name: inhibition at 1 µM (%)
Answer in %, number only, no unit symbol.

Please review the entries below; each comes with its answer.
# Compound string, Test system, Display unit, inhibition at 1 µM
rows = [
    ("CO[C@]1(C(=O)N[C@@H](C)c2ccc(-n3cc(F)cn3)nc2)CC[C@H](c2nc(C)cc(Nc3cc(C)[nH]n3)n2)CC1", "panel of 255 wild-type kinases (Homo sapiens, UniProt O15111)", "%", -1.52),
    ("CN1CCN(c2ccc(C(=O)Nc3n[nH]c4ccc(Cc5cc(F)cc(F)c5)cc34)c(NC3CCOCC3)c2)CC1", "panel of 255 wild-type kinases (Homo sapiens, UniProt O15111)", "%", 8),
    ("FC(F)(F)c1ccc(CNc2ccc(Cc3c[nH]c4ncc(Cl)cc34)cn2)cn1", "panel of 255 wild-type kinases (Homo sapiens, UniProt O15111)", "%", -0.379),
]

For panel of 255 wild-type kinases (Homo sapiens, UniProt O15111), provide inhibition at 1 µM of Cn1cc(-c2cc3c(N4CCN(c5ncc([C@@](C)(N)c6ccc(F)cc6)cn5)CC4)ncnn3c2)cn1 please. 2.41

Cool, now COC(=O)N[C@@H](C)CNc1nccc(-c2cn(C(C)C)nc2-c2cc(Cl)cc(NS(C)(=O)=O)c2F)n1 12

Cool, now Cc1cc(Nc2ncnc3ccc(NC4=NC(C)(C)CO4)cc23)ccc1Oc1ccn2ncnc2c1 -1.68

Cool, now C=CC(=O)N1CCC([C@@H]2CCNc3c(C(N)=O)c(-c4ccc(Oc5ccccc5)cc4)nn32)CC1 -10

Cool, now CCN1CCN(c2ccc(Nc3cc(N(C)C(=O)Nc4c(Cl)c(OC)cc(OC)c4Cl)ncn3)cc2)CC1 2.62

Cool, now C[C@H]1Oc2cc(cnc2N)-c2c(nn(C)c2C#N)CN(C)C(=O)c2ccc(F)cc21 12

Cool, now COc1ccc(CN2C3CC2CN(c2ccc(-c4cc(OCC(C)(C)O)cn5ncc(C#N)c45)cn2)C3)cn1 -1.36

Cool, now Cn1cnc2c(F)c(Nc3ccc(Br)cc3F)c(C(=O)NOCCO)cc21 9

Cool, now Cc1nc(NC(=O)N2CCC[C@H]2C(N)=O)sc1-c1ccnc(C(C)(C)C(F)(F)F)c1 6
